This collection of values is drawn from the supplement of paper PMC10307832.

System: NCI-H1395
Assay: relative viability (nuclei count vs DMSO), 5 days (fraction); higher = more cells survive
Conditions: first compound 0.001 µM
Entries annotated with measured relative viability

- COMPOUND: "Cc1cn(-c2cc(NC(=O)c3ccc(C)c(Nc4nccc(-c5cccnc5)n4)c3)cc(C(F)(F)F)c2)cn1 [Nilotinib] + CC1(C)CCC(c2ccc(Cl)cc2)=C(CN2CCN(c3ccc(C(=O)NS(=O)(=O)c4ccc(N[C@H](CCN5CCOCC5)CSc5ccccc5)c(S(=O)(=O)C(F)(F)F)c4)cc3)CC2)C1 [Navitoclax] (partner 0.5 µM)"
  relative viability: 1.03
- COMPOUND: "Cc1cn(-c2cc(NC(=O)c3ccc(C)c(Nc4nccc(-c5cccnc5)n4)c3)cc(C(F)(F)F)c2)cn1 [Nilotinib] + COc1cc2c(Oc3ccc(NC(=O)C4(C(=O)Nc5ccc(F)cc5)CC4)cc3F)ccnc2cc1OCCCN1CCOCC1 [Foretinib] (partner 0.25 µM)"
  relative viability: 1.07
- COMPOUND: "Cc1cn(-c2cc(NC(=O)c3ccc(C)c(Nc4nccc(-c5cccnc5)n4)c3)cc(C(F)(F)F)c2)cn1 [Nilotinib] + Nc1nc2[nH]cc(CCc3ccc(C(=O)N[C@@H](CCC(=O)O)C(=O)O)cc3)c2c(=O)[nH]1 [Pemetrexed] (partner 0.2 µM)"
  relative viability: 1
- COMPOUND: "Cc1cn(-c2cc(NC(=O)c3ccc(C)c(Nc4nccc(-c5cccnc5)n4)c3)cc(C(F)(F)F)c2)cn1 [Nilotinib] + C[C@]1(O)C[C@@H](c2nc(-c3ccc4ccc(-c5ccccc5)nc4c3)c3c(N)nccn32)C1 [Linsitinib] (partner 1 µM)"
  relative viability: 1
- COMPOUND: "Cc1cn(-c2cc(NC(=O)c3ccc(C)c(Nc4nccc(-c5cccnc5)n4)c3)cc(C(F)(F)F)c2)cn1 [Nilotinib] + CC(=O)Nc1cccc(-n2c(=O)n(C3CC3)c(=O)c3c(Nc4ccc(I)cc4F)n(C)c(=O)c(C)c32)c1 [Trametinib] (partner 0.02 µM)"
  relative viability: 0.988

====

Test system: NCI-H1755
Assay: relative viability (nuclei count vs DMSO), 5 days (fraction); higher = more cells survive
Settings: first compound 0.06325 µM
Entries annotated with measured relative viability

- COMPOUND: "CCNC(=O)c1noc(-c2cc(C(C)C)c(O)cc2O)c1-c1ccc(CN2CCOCC2)cc1 [Luminespib] + CS(=O)(=O)CCNCc1ccc(-c2ccc3ncnc(Nc4ccc(OCc5cccc(F)c5)c(Cl)c4)c3c2)o1 [Lapatinib] (partner 2 µM)"
  relative viability: 0.502
- COMPOUND: "CCNC(=O)c1noc(-c2cc(C(C)C)c(O)cc2O)c1-c1ccc(CN2CCOCC2)cc1 [Luminespib] + O=C(CCCCCCC(=O)Nc1ccccc1)NO [Vorinostat] (partner 1 µM)"
  relative viability: 0.57
- COMPOUND: "CCNC(=O)c1noc(-c2cc(C(C)C)c(O)cc2O)c1-c1ccc(CN2CCOCC2)cc1 [Luminespib] + Nc1nc2[nH]cc(CCc3ccc(C(=O)N[C@@H](CCC(=O)O)C(=O)O)cc3)c2c(=O)[nH]1 [Pemetrexed] (partner 0.2 µM)"
  relative viability: 0.264
- COMPOUND: "CCNC(=O)c1noc(-c2cc(C(C)C)c(O)cc2O)c1-c1ccc(CN2CCOCC2)cc1 [Luminespib] + Cc1cc(Nc2cc(N3CCN(C)CC3)nc(Sc3ccc(NC(=O)C4CC4)cc3)n2)n[nH]1 [Tozasertib] (partner 0.1 µM)"
  relative viability: 0.214
- COMPOUND: "CCNC(=O)c1noc(-c2cc(C(C)C)c(O)cc2O)c1-c1ccc(CN2CCOCC2)cc1 [Luminespib] + C[C@]1(O)C[C@@H](c2nc(-c3ccc4ccc(-c5ccccc5)nc4c3)c3c(N)nccn32)C1 [Linsitinib] (partner 1 µM)"
  relative viability: 0.946

====

System: NCI-H441
Experiment: relative viability (nuclei count vs DMSO), 5 days (fraction); higher = more cells survive
Settings: first compound 2 µM

- COMPOUND: "Cc1csc(=NC2CCCCC2)n1/N=C/c1ccc(O)c(O)c1O [MIM1] + Nc1ncn([C@H]2C[C@H](O)[C@@H](CO)O2)c(=O)n1 [Decitabine] (partner 2 µM)"
  relative viability: 0.241
- COMPOUND: "CN1CCN(CCOc2cc(OC3CCOCC3)c3c(Nc4c(Cl)ccc5c4OCO5)ncnc3c2)CC1 [Saracatinib] + COc1cccc2cc(-c3nc([C@H]4CC[C@H](C(=O)O)CC4)n4ncnc(N)c34)[nH]c12 [OSI-027] (partner 0.5 µM)"
  relative viability: 0.623
- COMPOUND: "Cc1csc(=NC2CCCCC2)n1/N=C/c1ccc(O)c(O)c1O [MIM1] + O=C(CCCCCCC(=O)Nc1ccccc1)NO [Vorinostat] (partner 1 µM)"
  relative viability: 0.974
- COMPOUND: "CN1CCN(CCOc2cc(OC3CCOCC3)c3c(Nc4c(Cl)ccc5c4OCO5)ncnc3c2)CC1 [Saracatinib] + N=C(N)NC(=N)NCCc1ccccc1 [Phenformin] (partner 250 µM)"
  relative viability: 0.819
- COMPOUND: "Cc1csc(=NC2CCCCC2)n1/N=C/c1ccc(O)c(O)c1O [MIM1] + Cc1nc(NC(=O)N2CCC[C@H]2C(N)=O)sc1-c1ccnc(C(C)(C)C(F)(F)F)c1 [Alpelisib] (partner 2 µM)"
  relative viability: 0.655
- COMPOUND: "Cc1csc(=NC2CCCCC2)n1/N=C/c1ccc(O)c(O)c1O [MIM1] + Nc1nc2[nH]cc(CCc3ccc(C(=O)N[C@@H](CCC(=O)O)C(=O)O)cc3)c2c(=O)[nH]1 [Pemetrexed] (partner 0.2 µM)"
  relative viability: 0.256
- COMPOUND: "CN1CCN(CCOc2cc(OC3CCOCC3)c3c(Nc4c(Cl)ccc5c4OCO5)ncnc3c2)CC1 [Saracatinib] + CC1(C)CCC(c2ccc(Cl)cc2)=C(CN2CCN(c3ccc(C(=O)NS(=O)(=O)c4ccc(N[C@H](CCN5CCOCC5)CSc5ccccc5)c(S(=O)(=O)C(F)(F)F)c4)cc3)CC2)C1 [Navitoclax] (partner 0.5 µM)"
  relative viability: 0.624
- COMPOUND: "CN1CCN(CCOc2cc(OC3CCOCC3)c3c(Nc4c(Cl)ccc5c4OCO5)ncnc3c2)CC1 [Saracatinib] + Cc1nc(Nc2ncc(C(=O)Nc3c(C)cccc3Cl)s2)cc(N2CCN(CCO)CC2)n1 [Dasatinib] (partner 0.075 µM)"
  relative viability: 0.549
- COMPOUND: "Cc1csc(=NC2CCCCC2)n1/N=C/c1ccc(O)c(O)c1O [MIM1] + CS(=O)(=O)N1CCN(Cc2cc3nc(-c4cccc5[nH]ncc45)nc(N4CCOCC4)c3s2)CC1 [Pictilisib] (partner 1 µM)"
  relative viability: 0.539
- COMPOUND: "Cc1csc(=NC2CCCCC2)n1/N=C/c1ccc(O)c(O)c1O [MIM1] + C[C@]1(O)C[C@@H](c2nc(-c3ccc4ccc(-c5ccccc5)nc4c3)c3c(N)nccn32)C1 [Linsitinib] (partner 1 µM)"
  relative viability: 0.543

====

Tested on: 201T
Experiment: relative viability (nuclei count vs DMSO), 5 days (fraction); higher = more cells survive
Settings: first compound 0.06325 µM
Label T when relative viability is strictly below 0.8; otherwise label F.

- MOLECULE: "CCNC(=O)c1noc(-c2cc(C(C)C)c(O)cc2O)c1-c1ccc(CN2CCOCC2)cc1 [Luminespib] + Cc1nc(NC(=O)N2CCC[C@H]2C(N)=O)sc1-c1ccnc(C(C)(C)C(F)(F)F)c1 [Alpelisib] (partner 2 µM)"
  GROUP: "F"
- MOLECULE: "CCNC(=O)c1noc(-c2cc(C(C)C)c(O)cc2O)c1-c1ccc(CN2CCOCC2)cc1 [Luminespib] + O=C(CCCCCCC(=O)Nc1ccccc1)NO [Vorinostat] (partner 1 µM)"
  GROUP: "F"
- MOLECULE: "CCNC(=O)c1noc(-c2cc(C(C)C)c(O)cc2O)c1-c1ccc(CN2CCOCC2)cc1 [Luminespib] + C[C@@H](Oc1cc(-c2cnn(C3CCNCC3)c2)cnc1N)c1c(Cl)ccc(F)c1Cl [Crizotinib] (partner 1 µM)"
  GROUP: "F"
- MOLECULE: "CCNC(=O)c1noc(-c2cc(C(C)C)c(O)cc2O)c1-c1ccc(CN2CCOCC2)cc1 [Luminespib] + Cc1nc(Nc2ncc(C(=O)Nc3c(C)cccc3Cl)s2)cc(N2CCN(CCO)CC2)n1 [Dasatinib] (partner 0.075 µM)"
  GROUP: "T"
- MOLECULE: "CCNC(=O)c1noc(-c2cc(C(C)C)c(O)cc2O)c1-c1ccc(CN2CCOCC2)cc1 [Luminespib] + C[C@]1(O)C[C@@H](c2nc(-c3ccc4ccc(-c5ccccc5)nc4c3)c3c(N)nccn32)C1 [Linsitinib] (partner 1 µM)"
  GROUP: "F"

====

Entries annotated with measured relative viability
System: HCC-827
Assay: relative viability (nuclei count vs DMSO), 5 days (fraction); higher = more cells survive
Settings: first compound 0.253 µM

- COMPOUND: "Nc1cccc2c1CN(C1CCC(=O)NC1=O)C2=O (stereo unspecified) [Lenalidomide] + Cc1nc(NC(=O)N2CCC[C@H]2C(N)=O)sc1-c1ccnc(C(C)(C)C(F)(F)F)c1 [Alpelisib] (partner 2 µM)"
  relative viability: 0.978
- COMPOUND: "Nc1cccc2c1CN(C1CCC(=O)NC1=O)C2=O (stereo unspecified) [Lenalidomide] + CS(=O)(=O)N1CCN(Cc2cc3nc(-c4cccc5[nH]ncc45)nc(N4CCOCC4)c3s2)CC1 [Pictilisib] (partner 1 µM)"
  relative viability: 1.03
- COMPOUND: "Nc1cccc2c1CN(C1CCC(=O)NC1=O)C2=O (stereo unspecified) [Lenalidomide] + CC(C)C[C@H](NC(=O)[C@H](Cc1ccccc1)NC(=O)c1cnccn1)B(O)O [Bortezomib] (partner 0.002 µM)"
  relative viability: 1.09
- COMPOUND: "Nc1cccc2c1CN(C1CCC(=O)NC1=O)C2=O (stereo unspecified) [Lenalidomide] + COc1cccc2cc(-c3nc([C@H]4CC[C@H](C(=O)O)CC4)n4ncnc(N)c34)[nH]c12 [OSI-027] (partner 0.5 µM)"
  relative viability: 0.807
- COMPOUND: "Nc1cccc2c1CN(C1CCC(=O)NC1=O)C2=O (stereo unspecified) [Lenalidomide] + C[C@@H](Oc1cc(-c2cnn(C3CCNCC3)c2)cnc1N)c1c(Cl)ccc(F)c1Cl [Crizotinib] (partner 1 µM)"
  relative viability: 1.02
- COMPOUND: "Nc1cccc2c1CN(C1CCC(=O)NC1=O)C2=O (stereo unspecified) [Lenalidomide] + O=C(CCCCCCC(=O)Nc1ccccc1)NO [Vorinostat] (partner 1 µM)"
  relative viability: 1.04
